- Tested on: Human alphaherpesvirus 2
- Experiment Description: In vitro antiviral activity against Herpes simplex virus (HSV-2) was determined
- Type: functional, organism-based
Measurement Name: EC50

EC50 for [N-]=[N+]=NC1C(Br)C(=O)NC(=O)N1[C@H]1C[C@H](O)[C@@H](CO)O1 (stereo not given in full) is 3.42 µM

Short answer for CC1(Cl)C(=O)NC(=O)N([C@H]2C[C@H](O)[C@@H](CO)O2)C1N=[N+]=[N-] (stereo not given in full) : EC50 was > 313 µM

Lookup result for CC1(Br)C(=O)NC(=O)N([C@H]2C[C@H](O)[C@@H](CO)O2)C1N=[N+]=[N-] (stereo not given in full) ; measured EC50: > 274 µM

The reported value for [N-]=[N+]=NC1C(Cl)C(=O)NC(=O)N1[C@H]1C[C@H](O)[C@@H](CO)O1 (stereo not given in full) in terms of EC50 is 1.6 µM

Nc1nc2c(ncn2COCCO)c(=O)[nH]1 [ACYCLOVIR] has a reported EC50 of 6.16 µM

====

Could you please report measured EC50 for the items listed next?
- Test system: Human gammaherpesvirus 4
- Experiment Description: In vitro antiviral activity against Epstein Barr virus (EBV) was determined
- Format: functional, organism-based
Expressed in µM, but write only the number.

Record Nc1nc2c(ncn2COCCO)c(=O)[nH]1 , field EC50: 3.96

Entry CC1(Br)C(=O)NC(=O)N([C@H]2C[C@H](O)[C@@H](CO)O2)C1N=[N+]=[N-] (stereo not given in full) — recorded EC50 = 16

Input [N-]=[N+]=NC1C(Br)C(=O)NC(=O)N1[C@H]1C[C@H](O)[C@@H](CO)O1 (stereo not given in full) . Output EC50: 46

What the record says about [N-]=[N+]=NC1C(Cl)C(=O)NC(=O)N1[C@H]1C[C@H](O)[C@@H](CO)O1 (stereo not given in full) : EC50 is 9.8

====

- Test system: CCRF-CEM
- Experiment Description: Inhibitory concentration for spectrum antiviral activity against herpes viruses
- Assay type: functional, cell-based
- Assay Setup: Homo sapiens
Measurement Name: IC50
Write down the value, and be sure its unit follows.

Looking up [N-]=[N+]=NC1C(Br)C(=O)NC(=O)N1[C@H]1C[C@H](O)[C@@H](CO)O1 (some centres undefined) , I found its IC50 recorded as 7.4 µM

Please fill in: IC50 reported for CC1(Br)C(=O)NC(=O)N([C@H]2C[C@H](O)[C@@H](CO)O2)C1N=[N+]=[N-] (some centres undefined) = 143 µM

// recorded IC50 for [N-]=[N+]=NC1C(Cl)C(=O)NC(=O)N1[C@H]1C[C@H](O)[C@@H](CO)O1 (some centres undefined) : 54.6 µM

// field: IC50; key: CC1(Cl)C(=O)NC(=O)N([C@H]2C[C@H](O)[C@@H](CO)O2)C1N=[N+]=[N-] (some centres undefined) ; value = 135 µM
